Entries and their IC50
# SYSTEM_UNDER_TEST: Cytochrome b-c1 complex subunit 7 (Homo sapiens, UniProt P14927)
# TEST: Modulation of UQCRB in human HepG2 cells assessed as inhibition of HIF-1alpha for 4 hrs under 1%O2 by Western blot analysis

**Query** Lab request: please report IC50 under test system Cytochrome b-c1 complex subunit 7 (Homo sapiens, UniProt P14927) for Cc1ccc(S(=O)(=O)Nc2ccc(O)cc2)cc1
**Result** > 20 µM

**Query** Moving on to the next molecule: O=S(=O)(Nc1cccc2ccc(O)cc12)c1ccc(-c2ccccc2)cc1
**Result** > 20 µM

**Query** Moving on to the next molecule: O=S(=O)(Nc1ccc(O)cc1)c1ccc2ccccc2c1
**Result** > 20 µM

* * *

# SYSTEM_UNDER_TEST: Cytochrome b-c1 complex subunit 7 (Homo sapiens, UniProt P14927)
# TEST: Modulation of UQCRB in human HepG2 cells assessed as inhibition of HIF-1alpha for 4 hrs under 1%O2 by Western blot analysis
ASSAY_READOUT: IC50 (µM)

CC(C)(C)c1ccc(S(=O)(=O)Nc2ccc(O)cc2)cc1	5
O=S(=O)(Nc1ccc(O)cc1)c1ccc(-c2ccccc2)cc1	2.5
CC(C)(C)c1ccc(S(=O)(=O)Nc2cccc(O)c2)cc1	8
CC(C)(C)c1ccc(S(=O)(=O)Nc2ccc(O)c3ncccc23)cc1	20

[A] O=S(=O)(Nc1ccc([O-])cc1)c1ccc(-c2ccccc2)cc1.[K+]
[B] CC(C)(C)c1ccc(S(=O)(=O)Nc2ccccc2O)cc1
**Query** Given the listed items, does A or B have the lesser reported IC50? Identify your pick by its label.
**Result** A
(A: 5 µM, B: 8 µM)

* * *

# TEST: Thermodynamic solubility in PBS by HPLC
# Assay type: physicochemical
# MEASUREMENT_PARAMETERS: read-out: Therm_solubility
ASSAY_READOUT: solubility thermodynamic (µg/mL)

[a] CC(C)(C)c1ccc(S(=O)(=O)Nc2ccc(O)cc2)cc1
[b] CC(C)(C)c1ccc(S(=O)(=O)Nc2ccc(O)c3ncccc23)cc1
[c] O=S(=O)(Nc1ccc(O)c2ncccc12)c1ccc(-c2ccccc2)cc1
[d] O=S(=O)(Nc1ccc([O-])cc1)c1ccc(-c2ccccc2)cc1.[K+]
**Query** Rank the 4 compounds: largest solubility thermodynamic first, smallest last. Give the order by naming the labels one after another as requested.
**Result** d, a, b, c

* * *

# TEST: Antitumor activity against human U87MG cells assessed as inhibition of cell growth after 72 hrs by MTT assay
# Type: functional, cell-based, U-87MG ATCC
# MEASUREMENT_PARAMETERS: U-87 MG
ASSAY_READOUT: IC50 (µM)
Respond numerically; units are µM and should not be typed.

**Query** I have this molecule here, O=S(=O)(Nc1ccc([O-])cc1)c1ccc(-c2ccccc2)cc1.[K+] , and I need its recorded IC50.
**Result** 12.5

* * *

# SYSTEM_UNDER_TEST: Cytochrome b-c1 complex subunit 7 (Homo sapiens, UniProt P14927)
# Sequence (P14927 whole entry): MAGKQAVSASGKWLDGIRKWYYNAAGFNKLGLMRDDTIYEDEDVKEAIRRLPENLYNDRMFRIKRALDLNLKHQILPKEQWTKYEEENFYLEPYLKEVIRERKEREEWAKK
# TEST: Modulation of UQCRB in human HepG2 cells assessed as inhibition of HIF-1alpha for 4 hrs under 1%O2 by Western blot analysis
pIC50: −log10 of the molar value.
Entries and their pIC50

O=S(=O)(Nc1ccc(O)c2ncccc12)c1ccc(-c2ccccc2)cc1	4.70
O=S(=O)(Nc1ccc(O)cc1)c1cccc2cccnc12	< 4.70

**Query** I have this compound here, CCc1ccc(S(=O)(=O)Nc2ccc(O)cc2)cc1 , and I need its recorded pIC50.
**Result** < 4.70
